Biological target: Recombinant human renin (Homo sapiens, UniProt P00797)
Construct: isolate the active form (residues 67-406); made in house; host or cells: FreeStyle 293-F cells (transient expression of pcDNA3.1(+)/hREN)
Experiment: In vitro enzymatic activity assay of renin inhibitors (fluorogenic peptide substrate)
Format: biochemical
Settings: read-out: IC50 of Exemplified Compounds Against Renin
Experimental: Test compounds in varying concentrations may be reacted with recombinant human renin in the presence of substrate, e.g., QXL520-γ-Abu-[…](HiLyteFluo488)-Arg-OH (Anaspec, San Jose, Calif.). […] Inhibition constants (IC50) may be calculated by non-linear curve fitting of the compound concentrations and fluorescence intensities to the standard IC50 equation. […] The fluorescence intensity is determined upon the addition of substrate and determined again after incubation at 37° C. for one hour. […]
Reported metric: IC50

Molecule | IC50
COCCCn1c([C@@H]2CCCN(C(=O)C[C@H](N)Cc3ccc(Cl)c(Cl)c3)C2)nc2ccccc21 | 100 to 1000 nM

What value of IC50 has been recorded for this entry: COCCCn1c([C@@H]2CCCN(C(=O)[C@@H]3CN(S(=O)(=O)c4cccc(OC)c4)C[C@H]3N)C2)nc2ccccc21
100 to 1000 nM

What value of IC50 has been recorded for this entry: O=C(Nc1ccccc1)N1CCCC(c2nc3ccccc3[nH]2)C1 (stereo not shown)
> 1000 nM

What value of IC50 has been recorded for this entry: COCCCn1c([C@@H]2CCCN(C(=O)[C@@H]3CN(S(=O)(=O)c4cccc(Cl)c4)C[C@H]3N)C2)nc2ccccc21
100 to 1000 nM

* * *

Biological target: Recombinant human renin (Homo sapiens)
Construct: isolate the active form (residues 67-406); made in house; host or cells: FreeStyle 293-F cells (transient expression of pcDNA3.1(+)/hREN)
Sequence (P00797 67-406): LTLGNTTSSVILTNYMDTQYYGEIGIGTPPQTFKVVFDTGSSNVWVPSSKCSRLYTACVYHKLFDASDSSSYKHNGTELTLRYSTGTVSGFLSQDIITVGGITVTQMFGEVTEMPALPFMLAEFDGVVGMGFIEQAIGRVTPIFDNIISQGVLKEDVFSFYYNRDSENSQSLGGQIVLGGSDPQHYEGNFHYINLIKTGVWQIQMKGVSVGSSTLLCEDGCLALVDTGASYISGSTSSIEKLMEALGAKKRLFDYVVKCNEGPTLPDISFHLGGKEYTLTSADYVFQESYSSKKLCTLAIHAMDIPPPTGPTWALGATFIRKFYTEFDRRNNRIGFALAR
Experiment: In vitro enzymatic activity assay of renin inhibitors (fluorogenic peptide substrate)
Format: biochemical
Settings: read-out: IC50 of Exemplified Compounds Against Renin
Protocol: Test compounds in varying concentrations may be reacted with recombinant human renin in the presence of substrate, e.g., QXL520-γ-Abu-[…](HiLyteFluo488)-Arg-OH (Anaspec, San Jose, Calif.). […] Inhibition constants (IC50) may be calculated by non-linear curve fitting of the compound concentrations and fluorescence intensities to the standard IC50 equation. […] The fluorescence intensity is determined upon the addition of substrate and determined again after incubation at 37° C. for one hour. […]
Overview of reported IC50 across a group of compounds:

Compound | Observed
COCCCn1c([C@@H]2CCCN(C(=O)C[C@H](N)Cc3ccc(-n4c(=O)oc5ccccc54)cc3)C2)nc2ccccc21 [Compound 211] | < 100 nM
COCCCn1c([C@@H]2CCCN(C(=O)[C@@H]3CN(S(=O)(=O)c4cccc5c4ccn5C)C[C@H]3N)C2)nc2ccccc21 [Compound 392] | > 1000 nM
COCCCn1c([C@@H]2CCCN(C(=O)C[C@H](N)CNC(=O)c3ccc(Cl)c(Cl)c3)C2)nc2ccccc21 [Compound 262] | 100 to 1000 nM
COCCCn1c([C@@H]2CCCN(C(=O)C[C@H](N)CNC(=O)Nc3ccccc3Oc3ccccc3)C2)nc2ccccc21 [Compound 272] | 100 to 1000 nM
COCCCn1c([C@@H]2CCCN(C(=O)C[C@H](N)Cc3ccc(-c4csc(C(C)C)n4)cc3)C2)nc2ccccc21 [Compound 202] | < 100 nM

What value of IC50 has been recorded for this entry: COCCCn1c([C@@H]2CCCN(C(=O)C[C@H](N)Cc3ccc4ccccc4c3)C2)nc2cccc(C)c21 [Compound 107]
> 1000 nM
